- assay_explanation: pH-dependent equilibrium solubility, saturation shake-flask method in Britton-Robinson buffers and 1 M NaOH
- Assay type: physicochemical
- experimental_parameters: BR (Britton-Robinson) buffer, aqueous buffer, thermodynamic from solid; pH 8.02 BR buffer, 37 °C, mean of 3; read-out: SpH ± SD

| molecule | endpoint_unit | solubility thermodynamic at 6 h |
| --- | --- | --- |
| CC(C)Cc1ccc(C(C)C(=O)O)cc1 (stereo not shown) | mg/mL | 300 |

---

- assay_explanation: pH-dependent equilibrium solubility, saturation shake-flask method in Britton-Robinson buffers and 1 M NaOH
- Type: physicochemical
- experimental_parameters: aqueous buffer, thermodynamic from solid; pH 14, 1 M NaOH, 37 °C, mean of 3; read-out: SpH ± SD

| molecule | solubility thermodynamic at 6 h [mg/mL] |
| --- | --- |
| CC(C)Cc1ccc(C(C)C(=O)O)cc1 (stereo not shown) | 734 |

---

- assay_explanation: pH-dependent equilibrium solubility, saturation shake-flask method in Britton-Robinson buffers and 1 M NaOH
- Format: physicochemical
- experimental_parameters: BR (Britton-Robinson) buffer, aqueous buffer, thermodynamic from solid; pH 5.95 BR buffer, 37 °C, mean of 3; read-out: SpH ± SD

| molecule | solubility thermodynamic at 6 h (µg/mL) |
| --- | --- |
| CC(C)Cc1ccc(C(C)C(=O)O)cc1 (stereo not shown) [ibuprofen] | 1910 |

Every entry's value here was drawn from paper PMC10051608.
